# System: ypt1^ts cells
# EXPERIMENTAL_DETAILS: Rescue of growth of ypt1^ts mutant yeast (OD600)
# Type: cell-based
# TEST_CONTEXT: Saccharomyces cerevisiae, read-out: Ypt1-ts MRC (Minimum Rescue Concentration), ypt1^ts cells, 35° C. and 37° C., OD600; multiple results separated by a comma

COMPOUND	minimal effective concentration
CC(C)(C)n1nc(-c2cc3ccccc3s2)c2c(N)ncnc21	> 50 µM
CC(C)(C)n1nc(-c2cc3ccccc3o2)c2c(N)ncnc21	> 50 µM
CC(C)(C)n1nc(Cc2cccc3c2OCC3)c2c(N)ncnc21	10 to 50 µM
CN(C)c1cccc(C(O)c2nn(C(C)(C)C)c3ncnc(N)c23)c1 (centres unmarked)	> 50 µM
Nc1ncnc2c1c(Cc1cccc3ccccc13)nn2CC1CC1	< 10 µM
CC(C)(C)n1nc(Cc2ccc(Cl)cc2)c2c(N)ncnc21	< 10 µM
CC(C)(C)n1nc(C(=O)O)c2c(N)ncnc21	> 50 µM
CC(C)(C)n1nc(Cc2ccccc2Cl)c2c(N)ncnc21	10 to 50 µM
COc1ccc(-c2nn(C(C)(C)C)c3ncnc(N)c23)cc1	> 50 µM
Cc1ccc(Cc2nn(C(C)(C)C)c3ncnc(N)c23)cc1C	10 to 50 µM
CC(C)(C)n1nc(Cc2cccc(-c3ccccc3)c2)c2c(N)ncnc21	> 50 µM

----------
# MEASURED_TARGET: ΔF508 CFTR (Homo sapiens, UniProt P13569, DEL508-508)
# Sequence (P13569 with tags, fused parts or gaps DEL508-508): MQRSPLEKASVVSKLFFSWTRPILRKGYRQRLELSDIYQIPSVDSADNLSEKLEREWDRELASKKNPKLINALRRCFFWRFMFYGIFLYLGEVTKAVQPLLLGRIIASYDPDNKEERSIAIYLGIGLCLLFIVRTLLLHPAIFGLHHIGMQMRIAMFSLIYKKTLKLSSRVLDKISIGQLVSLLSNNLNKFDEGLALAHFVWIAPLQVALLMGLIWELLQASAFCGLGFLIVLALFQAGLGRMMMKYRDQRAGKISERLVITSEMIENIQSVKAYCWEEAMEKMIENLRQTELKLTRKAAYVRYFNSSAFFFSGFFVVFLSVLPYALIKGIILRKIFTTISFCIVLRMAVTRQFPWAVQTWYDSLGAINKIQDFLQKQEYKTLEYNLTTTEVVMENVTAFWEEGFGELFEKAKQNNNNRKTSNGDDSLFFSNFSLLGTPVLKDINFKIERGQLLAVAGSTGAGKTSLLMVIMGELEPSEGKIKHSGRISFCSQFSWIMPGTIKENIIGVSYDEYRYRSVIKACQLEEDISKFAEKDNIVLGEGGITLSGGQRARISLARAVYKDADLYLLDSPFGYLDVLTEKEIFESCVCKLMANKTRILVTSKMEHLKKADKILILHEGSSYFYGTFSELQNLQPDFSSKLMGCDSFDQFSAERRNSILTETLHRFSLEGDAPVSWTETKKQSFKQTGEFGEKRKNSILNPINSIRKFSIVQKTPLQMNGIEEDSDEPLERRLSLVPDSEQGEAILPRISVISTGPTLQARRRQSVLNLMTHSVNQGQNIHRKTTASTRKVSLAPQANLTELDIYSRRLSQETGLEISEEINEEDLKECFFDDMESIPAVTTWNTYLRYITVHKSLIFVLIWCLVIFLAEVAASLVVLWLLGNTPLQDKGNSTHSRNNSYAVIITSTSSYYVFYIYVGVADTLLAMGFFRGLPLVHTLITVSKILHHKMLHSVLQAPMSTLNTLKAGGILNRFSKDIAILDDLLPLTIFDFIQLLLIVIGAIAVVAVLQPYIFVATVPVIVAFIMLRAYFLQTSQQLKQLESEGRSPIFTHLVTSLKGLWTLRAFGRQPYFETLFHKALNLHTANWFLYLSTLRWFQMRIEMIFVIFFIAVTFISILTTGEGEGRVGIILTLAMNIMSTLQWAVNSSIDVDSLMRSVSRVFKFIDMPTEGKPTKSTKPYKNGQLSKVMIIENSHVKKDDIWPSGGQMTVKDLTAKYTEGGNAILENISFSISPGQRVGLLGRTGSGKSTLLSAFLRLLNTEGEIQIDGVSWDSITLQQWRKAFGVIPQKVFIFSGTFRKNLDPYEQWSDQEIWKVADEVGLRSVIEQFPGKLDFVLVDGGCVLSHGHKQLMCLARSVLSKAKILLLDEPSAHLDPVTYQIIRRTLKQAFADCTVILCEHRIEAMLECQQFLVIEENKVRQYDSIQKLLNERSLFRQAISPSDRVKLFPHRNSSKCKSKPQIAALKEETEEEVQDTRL
# EXPERIMENTAL_DETAILS: Corrector activity, YFP halide (iodide) quenching assay in FRT cells expressing ΔF508 CFTR
# Type: cell-based
# Design: expressed in transfected cells; host or cells: Fischer rat thyroid (FRT) cells
# TEST_CONTEXT: FRT cells ΔF508 CFTR/YFP, 24 hours with compound at 37° C., forskolin and genistein; read-out: Corrector EC50
EC50 by entry:

COMPOUND	EC50
Nc1ncnc2c1c(Cc1cccc3ccccc13)nn2C1CNC1 [compound 413]	> 15 µM
CCn1nc(Nc2ccccc2)c2c(N)ncnc21 [Compound No. 223]	> 15 µM
Nc1ncnc2c1c(-c1ccc(Cl)cc1)nn2-c1ccc([N+](=O)[O-])cn1 [compound 288]	> 15 µM
Nc1ncnc2c1c(-c1ccc(Cl)cc1)cn2C1CCC1 [compound 257]	< 2 µM
CC(C)(C)n1nc(Br)c2c(N(C(=O)c3ccccc3)C(=O)c3ccccc3)ncnc21 [compound 425]	2 to 5 µM
CCn1nc(Sc2cccc(OC)c2)c2c(N)ncnc21 [compound 280]	> 15 µM
CCn1nc(Nc2cccc3ccccc23)c2c(N)ncnc21 [compound 308]	5 to 10 µM
Nc1ncnc2c1c(Nc1ccccc1)nn2C1CCC1 [Compound No. 253]	> 15 µM
CCn1cc(-c2ccc(Cl)cc2)c2c(NC(=O)C3CCCC3)ncnc21 [compound 350]	< 2 µM

----------
# Tested on: ypt1^ts cells
# EXPERIMENTAL_DETAILS: Rescue of growth of ypt1^ts mutant yeast (OD600)
# Type: cell-based
# TEST_CONTEXT: Saccharomyces cerevisiae, read-out: Ypt1-ts MRC (Minimum Rescue Concentration), ypt1^ts cells, 35° C. and 37° C., OD600; multiple results separated by a comma
# minimal effective concentration annotations
ASSAY_METRIC: minimal effective concentration

SMILES_REPR	RESULT
Nc1ncnc2c1c(-c1ccc(Cl)cc1)nn2Cc1ccccc1	10 to 50 µM
Nc1ncnc2c1c(-c1ccc(Cl)cc1)nn2-c1ccccc1	> 50 µM
Cc1ccc(Cc2nn(C(C)(C)C)c3ncnc(N)c23)cc1	10 to 50 µM
Nc1ncnc2c1c(-c1ccc(Cl)cc1)nn2C1CCC1	10 to 50 µM
CC(C)n1nc(-c2ccc(Cl)cc2)c2c(N)ncnc21	10 to 50 µM
CC(C)(C)n1nc(Cc2cccc3ccccc23)c2c(N)nc(C3CC3)nc21	> 50 µM
CC(C)(C)n1nc(-c2ccc(-c3ccccc3)cc2)c2c(N)ncnc21	> 50 µM
CC(C)(C)n1nc(-c2ccsc2)c2c(N)ncnc21	> 50 µM
CCn1cc(-c2ccc(C)cc2)c2c(N)cccc21	> 50 µM
